B1: HDV Ribozyme (parent)
chain: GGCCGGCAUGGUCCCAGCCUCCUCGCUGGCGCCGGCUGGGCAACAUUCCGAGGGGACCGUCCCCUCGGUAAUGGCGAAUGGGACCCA

# Variants of: B1
# experimentSummary: self-cleavage, relative activity (ratio to wild type); higher = more cleavage; co-transcriptional
// label 0 strictly below 0.2 in self-cleavage; label 1 otherwise

In: Is it the case that U47G G67U has self-cleavage reaching or exceeding 0.2?
Out: label 1

In: hey, is self-cleavage for this one >= 0.2? C44G U72A
Out: label 1

In: Please check the record G39C A78U and state if its self-cleavage is at or above 0.2.
Out: label 0

In: Does the reported self-cleavage for U12C C22A fall at or above the 0.2 mark?
Out: label 0

In: Textbook exercise: given the entry C3G G31C , state whether its self-cleavage is greater than or equal to 0.2.
Out: label 0

In: Can G1A C14U be said to have self-cleavage at or above 0.2?
Out: label 1

Others:
In: // inclusive: self-cleavage at least 0.2? input: C33A U69G
Out: label 1

In: Please tell me: is the variant C44A G50A at or over 0.2 in terms of self-cleavage?
Out: label 1

In: self-cleavage >= 0.2 for G6C C13G ?
Out: label 0

In: Hello, I need to know if G11C U20A has measured self-cleavage not below 0.2. Thanks!
Out: label 0

In: Is self-cleavage at least 0.2? Consider C7G G55C
Out: label 1

In: Does the variant U23C C63U have recorded self-cleavage that is 0.2 or more?
Out: label 1

In: Assess whether reported self-cleavage for G68C C75A sits at 0.2 or higher.
Out: label 0

In: Evaluate C21U C48U : self-cleavage at minimum 0.2?
Out: label 1

In: Could you please find out whether A45G A51C has self-cleavage that meets 0.2 or exceeds it?
Out: label 1

In: Could you please find out whether C58G A83C has self-cleavage that meets 0.2 or exceeds it?
Out: label 1

In: Is reported self-cleavage greater than or equal to 0.2 here: U27C A45C
Out: label 1
